target: Voltage-dependent T-type calcium channel subunit alpha-1I (Homo sapiens) (UniProt Q9P0X4); experiment: Cav3.3 T-type channel current inhibition, dose response, selectivity assay for Cav3.2 inhibitor project, automated patch clamp, HEK293 cells (AID 504425); settings: HEK293 Cav3.3, automated patch clamp current
Sequence (Q9P0X4 whole entry, looked up): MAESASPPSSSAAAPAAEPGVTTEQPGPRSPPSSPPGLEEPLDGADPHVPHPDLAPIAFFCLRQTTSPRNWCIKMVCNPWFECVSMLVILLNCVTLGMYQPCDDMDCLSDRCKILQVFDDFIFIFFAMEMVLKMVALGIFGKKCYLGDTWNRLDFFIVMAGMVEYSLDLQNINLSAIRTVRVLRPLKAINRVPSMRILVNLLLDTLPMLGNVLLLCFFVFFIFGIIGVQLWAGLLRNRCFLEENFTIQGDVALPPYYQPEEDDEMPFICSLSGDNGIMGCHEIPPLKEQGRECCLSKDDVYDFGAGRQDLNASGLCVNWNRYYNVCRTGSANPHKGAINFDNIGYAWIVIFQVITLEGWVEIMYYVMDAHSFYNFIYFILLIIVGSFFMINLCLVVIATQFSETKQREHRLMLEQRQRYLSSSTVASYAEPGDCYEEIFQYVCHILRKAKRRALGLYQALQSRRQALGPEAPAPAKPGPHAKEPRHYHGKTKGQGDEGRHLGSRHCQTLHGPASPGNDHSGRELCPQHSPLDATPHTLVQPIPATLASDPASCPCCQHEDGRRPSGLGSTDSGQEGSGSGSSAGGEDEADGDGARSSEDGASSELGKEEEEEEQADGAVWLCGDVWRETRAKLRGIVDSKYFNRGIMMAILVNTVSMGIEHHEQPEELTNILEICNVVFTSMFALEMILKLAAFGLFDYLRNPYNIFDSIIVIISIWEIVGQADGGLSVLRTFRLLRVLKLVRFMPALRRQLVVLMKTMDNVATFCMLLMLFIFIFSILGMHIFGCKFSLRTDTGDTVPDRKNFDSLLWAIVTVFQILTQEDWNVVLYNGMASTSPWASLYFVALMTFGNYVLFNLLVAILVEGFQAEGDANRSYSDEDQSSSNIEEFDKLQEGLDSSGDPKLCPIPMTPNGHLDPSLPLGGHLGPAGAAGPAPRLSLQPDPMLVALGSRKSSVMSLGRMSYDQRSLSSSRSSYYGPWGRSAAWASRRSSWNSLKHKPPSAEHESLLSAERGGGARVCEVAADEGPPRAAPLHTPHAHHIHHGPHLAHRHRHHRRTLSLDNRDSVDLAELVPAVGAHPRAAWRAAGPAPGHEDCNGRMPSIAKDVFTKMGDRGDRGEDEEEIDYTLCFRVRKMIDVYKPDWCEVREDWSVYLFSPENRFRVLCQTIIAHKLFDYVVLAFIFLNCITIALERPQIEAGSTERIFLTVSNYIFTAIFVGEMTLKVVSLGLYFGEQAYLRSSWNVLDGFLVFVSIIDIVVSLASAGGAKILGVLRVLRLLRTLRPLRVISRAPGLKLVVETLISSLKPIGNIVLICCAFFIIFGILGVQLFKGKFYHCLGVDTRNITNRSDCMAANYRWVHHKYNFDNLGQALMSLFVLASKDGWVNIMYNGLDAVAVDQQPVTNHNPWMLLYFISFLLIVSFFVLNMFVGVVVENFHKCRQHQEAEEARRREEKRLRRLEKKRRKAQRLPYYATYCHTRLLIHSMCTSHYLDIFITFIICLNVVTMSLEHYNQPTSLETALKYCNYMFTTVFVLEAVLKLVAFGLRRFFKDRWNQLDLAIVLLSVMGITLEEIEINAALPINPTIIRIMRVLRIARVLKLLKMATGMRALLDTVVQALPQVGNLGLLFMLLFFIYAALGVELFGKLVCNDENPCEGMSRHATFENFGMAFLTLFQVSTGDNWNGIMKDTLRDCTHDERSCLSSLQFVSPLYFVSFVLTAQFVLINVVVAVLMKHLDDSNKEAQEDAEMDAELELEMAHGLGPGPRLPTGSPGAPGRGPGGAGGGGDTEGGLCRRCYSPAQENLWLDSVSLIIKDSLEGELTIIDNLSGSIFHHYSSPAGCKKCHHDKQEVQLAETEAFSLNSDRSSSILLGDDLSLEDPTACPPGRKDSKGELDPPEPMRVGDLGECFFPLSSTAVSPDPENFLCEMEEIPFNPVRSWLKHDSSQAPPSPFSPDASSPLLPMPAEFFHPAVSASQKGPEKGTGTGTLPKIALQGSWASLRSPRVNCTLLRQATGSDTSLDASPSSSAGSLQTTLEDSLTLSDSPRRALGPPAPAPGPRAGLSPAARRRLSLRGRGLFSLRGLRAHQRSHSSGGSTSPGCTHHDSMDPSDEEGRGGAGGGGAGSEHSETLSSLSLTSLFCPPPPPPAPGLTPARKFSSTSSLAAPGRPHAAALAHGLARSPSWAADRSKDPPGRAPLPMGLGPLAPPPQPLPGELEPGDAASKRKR
measuredAttribute: IC50

- CC(C)(C)CCN1C[C@@H]2C(CNC(=O)c3cc(Cl)cc(Cl)c3)[C@@H]2C1 (some centres not stated): 0.275 µM

Now for a further molecule.
Name the recorded IC50 for O=C(COc1ccc(F)cc1Cl)Nc1nnc(-c2ccc(F)c(F)c2)o1 . 11 µM
